Source: ChEMBL document CHEMBL1201862

system: A549; assay: NCI tumour cell line growth inhibition, 48 h
Activity calls are given as the source filed them. Cut-off read from the data, not from the text of the source: active = GI50 up to about 1.1 µM and inactive = higher.
API: response.call in 1 = active, 0 = inactive

Look over these answered cases.
# compound, classification
data = [
    ("COc1ccc(-c2[nH]c(=O)n(C3OC(CO)C(O)C(O)C3O)c(=O)c2C#N)cc1 (stereo not drawn)", 0),
    ("COc1ccc(C(=C(C#N)C#N)c2ccc(OC)cc2)cc1", 0),
    ("COc1ccc2cc3c4cc5c(cc4cc[n+]3cc2c1OC)OCO5", 0),
    ("CN1C=Cc2nccc3cc4c(c1c23)OCO4", 0),
    ("CCOC(=O)C12CCCC1(O)N(NC(N)=O)C(C)=C2C(=O)OC (stereo not drawn)", 0),
    ("O=C1CCc2c(sc3ncnc(Nc4cccc(Br)c4)c23)C1", 0),
    ("CC(=O)Oc1ccc(/C=C/C(=O)O[C@H]2CCCC[C@@H]2OC(=O)/C=C/c2ccc(OC(C)=O)c(OC(C)=O)c2)cc1OC(C)=O", 0),
    ("CC(=O)NNc1nc(C)c(C(/C=C/c2ccccc2O)=N/N=C(N)N)s1", 0),
]

Here is the next item to consider.
Fill in: this test's call for COc1cc(C2c3cc4c(cc3C3OC[C@@H]2C3CO)OCO4)cc(OC)c1OC (stereo partly drawn) is ___
0
